Values from ChEMBL document CHEMBL1145971

Can you tell me IC50 for the items I'm about to list?
Target: Neuropeptide Y receptor type 5 (Homo sapiens)
Sequence (Q15761 whole entry): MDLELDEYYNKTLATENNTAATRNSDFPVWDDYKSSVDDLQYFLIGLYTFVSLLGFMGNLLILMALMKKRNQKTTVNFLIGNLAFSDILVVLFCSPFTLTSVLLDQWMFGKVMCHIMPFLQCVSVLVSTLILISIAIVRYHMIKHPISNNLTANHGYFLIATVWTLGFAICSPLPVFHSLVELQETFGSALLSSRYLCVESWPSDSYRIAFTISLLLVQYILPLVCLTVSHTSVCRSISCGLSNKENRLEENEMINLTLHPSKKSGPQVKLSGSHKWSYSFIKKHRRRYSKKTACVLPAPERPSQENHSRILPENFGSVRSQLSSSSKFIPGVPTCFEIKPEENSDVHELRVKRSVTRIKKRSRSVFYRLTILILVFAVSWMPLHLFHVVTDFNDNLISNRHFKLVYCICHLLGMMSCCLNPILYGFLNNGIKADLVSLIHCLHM
Assay: Inhibition of [125I]PYY binding human recombinant Neuropeptide Y receptor type 5 in LMtk-cells

Measured IC50 for this entry `O=C(CCc1ccccc1)Nc1cc(-c2ccc(Cl)cc2)n[nH]1` on Neuropeptide Y receptor type 5 (Homo sapiens): > 1000 nM

Measured IC50 for this entry `O=C(Cc1ccccc1)Nc1cc(-c2ccc(Cl)cc2)n[nH]1` on Neuropeptide Y receptor type 5 (Homo sapiens): 803 nM

Measured IC50 for this entry `O=C(Nc1cc(-c2ccc(Cl)cc2)n[nH]1)c1ccc(-c2ccccc2)cc1` on Neuropeptide Y receptor type 5 (Homo sapiens): > 1000 nM

Measured IC50 for this entry `O=C(Nc1cc(-c2ccc(Cl)cc2)n[nH]1)c1cccc2ccccc12` on Neuropeptide Y receptor type 5 (Homo sapiens): > 1000 nM

Measured IC50 for this entry `O=C(Nc1cc(-c2ccc(Cl)cc2)n[nH]1)c1ccccc1` on Neuropeptide Y receptor type 5 (Homo sapiens): > 1000 nM

Measured IC50 for this entry `O=C(Nc1cc(-c2ccc(Cl)cc2)n[nH]1)c1ccc2ccccc2c1` on Neuropeptide Y receptor type 5 (Homo sapiens): > 1000 nM

Measured IC50 for this entry `O=C(Cc1ccc2ccccc2c1)Nc1cc(-c2ccc(Cl)cc2)n[nH]1` on Neuropeptide Y receptor type 5 (Homo sapiens): 47 nM

Measured IC50 for this entry `O=C(CCCc1ccccc1)Nc1cc(-c2ccc(Cl)cc2)n[nH]1` on Neuropeptide Y receptor type 5 (Homo sapiens): 443 nM

Measured IC50 for this entry `O=C(Cc1cccc2ccccc12)Nc1cc(-c2ccc(Cl)cc2)n[nH]1` on Neuropeptide Y receptor type 5 (Homo sapiens): 317 nM

Measured IC50 for this entry `O=C(O)CCc1cccc(CC(=O)Nc2cc(-c3ccc(Cl)cc3)n[nH]2)c1` on Neuropeptide Y receptor type 5 (Homo sapiens): 16.3 nM

---

assay: Half life (10 mg/kg) was determined in SD rats when administered perorally; format: ADME, organism-based; details: Sprague-Dawley, rat, in vivo, po
MEASURED_ENDPOINT: half-life (h)
Number in h, nothing else.

Record CCc1cc(-c2cc(NC(=O)C3Cc4ccc5ccccc5c4C3)[nH]n2)ccn1 (stereo in doubt; (-)-7) . Reported half-life: 1.9

---

target: UniProtKB Q15761; experiment: Inhibition of [125I]PYY binding to human recombinant Neuropeptide Y receptor type 5 in LMtk-cells
Can you tell me Ki for the items I'm about to list?

Measured Ki for this entry `O=C(Nc1cc(-c2cccc(Cl)c2)n[nH]1)C1Cc2ccccc2C1` on UniProtKB Q15761: 120 nM

Measured Ki for this entry `COc1ccc(-c2cc(NC(=O)C3Cc4ccccc4C3)[nH]n2)cc1` on UniProtKB Q15761: 62 nM

Measured Ki for this entry `Cc1ccc(-c2cc(NC(=O)C3Cc4ccccc4C3)[nH]n2)cc1` on UniProtKB Q15761: 80 nM

Measured Ki for this entry `CC(C)Oc1ccc(-c2cc(NC(=O)C3Cc4ccccc4C3)[nH]n2)cc1` on UniProtKB Q15761: 92 nM
